Assay: label from the status in PepcDB records;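 further: failed if final PepcDB status was selected cloned or expressed and not failed if soluble or beyond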
observed-property: protein production

# count of solved cases: 9
INSERT INTO assay_data (seq_text, reported_measurement) VALUES
  ('MNAIISPDYYYVLTVAGQSNAMAYGEGLPLPDREDAPHPRIKQLARFAHTHPGGPSCHFNDIIPLTHCPHDVQDMQSYHHPLATNHQTQYGTVGQALHIARKLLPFIPDNAGILIVPCCRGGSAFTAGSEGTYSERHGASHDACRWGTDTPLYQDLVSRTRAALVKNPQNKFLGVCWMQGEFDLMTSDYASHPQHFNHMVEAFRRDLKQYHSQLNNITDAPWFCGDTTWYWKENFPHAYEAIYGNYQNNILANIIFVDFQQQGARGLTNAPDEDPDDLSTGYYGSAYRSPENWTTAXRSSHFSSAARRGIISDRFVEAILQFWRER', 'not failed'),
  ('MINKTLLQKRFNGAAVSYDRYANVQKKMAHSLLSILKERYSETASIRILELGCGTGYVTEQLSKLFPKSHITAVDFAESMIAIAQTRQNVKNVTFHCEDIERLRLEESYDVIISNATFQWLNNLQQVLRNLFQHLSIDGILLFSTFGHETFQELHASFQRAKEERNIKNETSIGQRFYSKDQLLHICKIETGDVHVSETCYIESFTEVKEFLHSIRKVGATNSNEGSYCQSPSLFRAMLRIYERDFTGNEGIMATYHALFIHITKEGKR', 'failed'),
  ('MLFGGNRNKMLKTIITSAITYSSTAIDLLIILMLFFAKIKDKKGIRDIYIGQFLGSDVLILVSLFFAFILHYVPDKRLLGLLGIIPIFLGLKALIFGDSDGEKMANKELNNNNNKMNLIKTLMFITIVSCGADNIGLFVPYFISLTPLNLVITLIVFLIMIFLLVFVAQKLANVPTIGEVLEKYSRWFIGFVYIFIGGSVLIENGSIQFIINLFK', 'failed'),
  ('MKTLHVQTASSSYPVFIGQGIRKKACELLTSLNRPLTRIMFVTDEEVDRLYGDEMLHLLQEKWPVKKVTVPSGEQAKSMDMYTKLQSEAIRFHMDRSSCIIAFGGGVVGDLAGFVAATFMRGIDFIQMPTTLLAHDSAVGGKVAVNHPLGKNLIGAFYQPKAVLYDTDFLRSLPEKELRSGMAEVIKHAFIYDRAFLEELLNIHSLRDITNDQLNDMIFKGISIKASVVQQDEKEEGIRAYLNFGHTLGHAVEAEYGYGQITHGDAVALGMQFALYISEKTVGCEMDRKRLVSWLKSLGYPSQIRKETETSVLLNRMMNDKKTRGGKIQFIVLNELGKVADHTFSRNELESWLNKWRLEETS', 'failed'),
  ('MKLVICIVQDDDAGELIDVLTDKGLRVTKLATTGGFLKAGNTTLMIGVEEKAVDGVIETIEDVCKTRQQVVTSPSPVAGSTGVYVPYPIDVEVGGATIFVVDVDKFIKI', 'failed'),
  ('MESDSEMVPFPQLPMPIENNYRACTIPYRFPSDDPKKATPNEISWINVFANSIPSFKKRAESDITVPDAPARAEKFAERYAGILEDLKKDPESHGGPPDGILLCRLREQVLRELGFRDIFKKVKDEENAKAISLFPQVVSLSDAIEDDGKRLENLVRGIFAGNIFDLAVKTWFHDHGSLMTWKTSKPNGSISLGRRSLICFALPFNASFRLQCLFSELKYTLNCSSSSSFPFKVVLAANELPSINDITCTELTEILSQLKDENGQLLGVDTSKLLIANSGNDLPVIDLSRVSQELAYLSSDADLVIVEGMGRGIETNLYAQFKCDSLKIGMVKHLEVAEFLGGRLYDCVFKFNEVQS', 'not failed'),
  ('MNIGNITISVIIPVYNASVTLPHCLESLHKQTYRNLELLFVDDCSTDESLYILTSYAEQFAEIDFTIRILQHERNRGVAAARNTALKCATGDYIYYVDADDSIEPHTLECLVNEINHKGLDIVGHEWYLTFNSNARYMKQPAYTTSVEALRKMMGGVMRWNLWLFLVRRSLYVENDIRFTEGLNMGEDMMVMMKLFICAGKVGIVHRPFYHYRQSNPESLTKIYSQEHIIQVANNVYEVEKYVNASAYADSLIEFIPFLKLNIKLPLLITDDKSHYEQWLECFPEANCYVMNNKLLPLRTRIIQWMAVKRYFILLRLYYRTVFKLVYGIIYKLEHHHHHH', 'failed'),
  ('MSLYNYVLFDLDGTLTDSAEGITKSVKYSLNKFDIQVEDLSSLNKFVGPPLKTSFMEYYNFDEETATVAIDYYRDYFKAKGMFENKVYDGIEALLSSLKDYGFHLVVATSKPTVFSKQILEHFKLAFYFDAIVGSSLDGKLSTKEDVIRYAMESLNIKSDDAIMIGDREYDVIGALKNNLPSIGVTYGFGSYEELKNAGANYIVNSVDELHKKILELREGHHHHHH', 'not failed'),
  ('MTFSQMILNLQNYWQEQGCAIMQPYDMPAGAGTFHPATFLRSLGKKPWAAAYVAPSRRPTDGRYGENPNRLGAYYQFQVLIKPSPDNIQELYLKSLENLGFDLKSHDIRFVEDNWESPSLGAWGLGWEVWLDGMEVTQFTYFQQVGGIAVDLVSAEITYGLERIAMYLQNVDNVYDIVWSEFNGEKIKYADVHKQSEYEFSKYNFEVSDVKILNEQFENSYKECKNILEQGLALPAYDYCMLAAHTFNLLDARGAISVAQRQDYMLKIRELSKNCAEIYKKNLNEAE', 'not failed');

Form field protein production, entry METKTVAITMGDPAGIGPEIIVKALSEDGLNGAPLVVIGCLATLKRLQAKGITPNVELRAIERVAEARFAPGIIHVIDEPLAQPEALEAGKVQAQAGDLAYRCVKRATELALRGDVQAIATAPLNKEALHLAGHNYPGHTELLATLTHSRDYAMVLYTDKLKVIHVSTHIALRKFLDTLSTARVETVIGIADTFLKRVGYVKPRIAVAGVNPHAGENGLFGDEETRILTPAITDARAKGMDVYGPCPPDTVFLQAYEGQYDMVVAMYHDQGHIPLKLLGFYDGVNITAGLPFIRTSADHGTAFDIAWTGKAKSESMAVSIKLAMQLA : not failed
